These entries and their values trace back to the supplement of paper PMC11208160.

experiment: recombinant UMI read abundance after kanamycin selection (control-corrected) (log10(CPM+1)); higher = more efficient recombination; extreme values may be limits of the assay; sequences stand for … in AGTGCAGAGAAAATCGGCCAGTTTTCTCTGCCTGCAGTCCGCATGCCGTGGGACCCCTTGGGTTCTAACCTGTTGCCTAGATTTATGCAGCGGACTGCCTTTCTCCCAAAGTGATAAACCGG…AGGTTGGTTTCACT; site = the 11-nt donor
Assign recombinant UMI read abundance (log10) to each entry below.

Below: 3 sequences and their reported recombinant UMI read abundance (log10).
[
  {
    "chain": "GAAGATTCATGGACCGGTTTTCCCGGTAATCCGTATTTGAT (site GAAGATTCTAA)",
    "recombinant UMI read abundance (log10)": 0.773
  },
  {
    "chain": "GTATGACCATGGACCGGTTTTCCCGGTAATCCGTATTTGGC (site GTATGACCTGC)",
    "recombinant UMI read abundance (log10)": 0
  },
  {
    "chain": "ACTACTGCATGGACCGGTTTTCCCGGTAATCCGTATTTGCC (site CCTACTGCTGG)",
    "recombinant UMI read abundance (log10)": 1.45
  }
]

Give recombinant UMI read abundance (log10) for each listed item.
1. GAGTCGACATGGACCGGTTTTCCCGGTAATCCGTATTTGGG (site GAGTCGACTCC)
2. GGGGCACCATGGACCGGTTTTCCCGGTAATCCGTATTTGAA (site GGGGCACCTTC)

Data returned:
0.044
0.018

----------
Assign recombinant barcode read abundance (log10) to each entry below.
experiment: recombinant barcode read abundance after kanamycin selection (control-corrected) (log10(CPM+1)); higher = more efficient recombination; sequences stand for … in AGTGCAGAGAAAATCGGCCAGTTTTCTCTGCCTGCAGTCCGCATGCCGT…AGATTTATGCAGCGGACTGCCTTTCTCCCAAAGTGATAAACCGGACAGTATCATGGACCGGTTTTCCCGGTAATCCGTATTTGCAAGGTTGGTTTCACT; site = the 11-nt target

Below: 5 sequences and their reported recombinant barcode read abundance (log10).
[
  {
    "chain": "TAGACATCTTGGGTTCTAACCTGTTGCGT (site TAGACATCTAC)",
    "value-measured": 1.65
  },
  {
    "chain": "CGTCCTCCTTGGGTTCTAACCTGTTGCAT (site CCGCCTCCTAT)",
    "value-measured": 0.00736
  },
  {
    "chain": "CTAAGCTCTTGGGTTCTAACCTGTTGCCT (site TTAAGCTCTAG)",
    "value-measured": 0.201
  },
  {
    "chain": "CTACAATCTTGGGTTCTAACCTGTTGCAT (site CTACAATCTAT)",
    "value-measured": 1.51
  },
  {
    "chain": "CTACGAACTTGGGTTCTAACCTGTTGCTG (site CTACGGACTCA)",
    "value-measured": 0.102
  }
]

Give recombinant barcode read abundance (log10) for each listed item.
1. GGAGAACCTTGGGTTCTAACCTGTTGCCT (site CGAGAACCTAG)
2. ACTTAGACTTGGGTTCTAACCTGTTGCCA (site ACTTAGACTAG)
3. ATAGAATCTTGGGTTCTAACCTGTTGCTC (site ATAGAATCTGA)
4. GTAAGTACTTGGGTTCTAACCTGTTGCCA (site ATAAGTCCTTG)
5. TCTAGAGCTTGGGTTCTAACCTGTTGCCT (site TCTAGAACTAG)

Data returned:
1: 0.492; 2: 0.502; 3: 1.96; 4: 0.063; 5: 0.0712
